Tested on: Plasmodium falciparum
Test: Antimalarial activity: in vitro Plasmodium falciparum culture, [3H]-hypoxanthine incorporation
Assay type: cell-based
Details: Plasmodium falciparum; Example 11; asynchronous blood culture, 48 h + 24 h with [3H]-hypoxanthine, dilution series 100 to 0.14 μmol l−1, IC50 determined by extrapolating; read-out: IC 50 values, Plasmodium falciparum
pIC50: −log10 of the molar value.
metric: pIC50

INSERT INTO results (molecule, assaysystem, number) VALUES
  ('CC(=O)C(C)(NO)C(CCc1ccccc1)CP(=O)(O)O (centres unmarked)', 'Plasmodium falciparum', 6.39),
  ('CC(=O)C(C)(NO)C(CCc1ccccn1)CP(=O)(O)O (centres unmarked)', 'Plasmodium falciparum', 6.43);
